Consider the following molecules; for each one, report its EC50.
test system: Tau phosphorylation at Ser396 (pSer396); assay: Tau phosphorylation assay (pSer396 ELISA / western blot) in SH-SY5Y cells; type: cell-based, human; settings: Homo sapiens; SH-SY5Y cells, overnight (16-18 h) exposure; read-out: pSer396 Tau EC50;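 further: EC50 for reduction of Tau pSer396 in lysed cells, measured by colorimetric ELISA or chemiluminescent western blot, both using the same pSer396 antibody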
Please give a number only; it is taken to be in nM.

[Q] Given `CN1CCN(C[C@H]2CC[C@H](C(=O)Nc3cc4cc(-c5cnn(C)c5)ccc4cn3)CC2)CC1` , state its recorded EC50.
[A] 408

[Q] And `Cn1cc(-c2ccc3cnc(NC(=O)CCN4CCOCC4)cc3c2)cn1` ?
[A] 430

[Q] And `Cn1cc(-c2cc(F)c3cnc(NC(=O)C4CCN(CCF)CC4)cc3c2)cn1` ?
[A] 660

[Q] And `CC(C)OCCN1CCC(C(=O)Nc2cc3cc(-c4cnn(C)c4)ccc3cn2)CC1` ?
[A] 302

[Q] And `Cn1cc(-c2ccc3cnc(NC(=O)CN4CCC(O)CC4)cc3c2)cn1` ?
[A] 458

[Q] And `CC(C)CN1CCC[C@@H](C(=O)Nc2cc3cc(-c4cn(C)nn4)ccc3cn2)C1` ?
[A] 611

[Q] And `CN1CCN(C[C@H]2CC[C@H](C(=O)Nc3cc4cc(-c5cn(C)nn5)ccc4cn3)CC2)CC1` ?
[A] 106

[Q] And `O=C(Nc1cc2cc(-c3cncs3)ccc2cn1)[C@H]1CC[C@H](CN2CC(F)C2)CC1` ?
[A] 443

----------
target: recombinant DYRK1A kinase (Homo sapiens (Human), UniProt Q13627); assay: DYRK1A kinase assay (Ser/Thr 18 peptide Z-lyte FRET); settings: 30 μM ATP, 1 h room temperature;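 further: Read-out is the coumarin to fluorescein emission ratio, referenced to unphosphorylated (0%) and phosphorylated (100%) Ser/Thr 18 peptide controls, values from dose-response curves by non-linear regression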
Consider the following molecules; for each one, report its pEC50.
FYI, pEC50 means -log10 of a concentration in mol per litre.

[Q] Given Cc1nnc(-c2ccc3cnc(NC(=O)C4CCN(CCF)CC4)cc3c2)s1 [Compound 900] , state its recorded pEC50.
[A] 8.54

[Q] And Cn1cc(-c2ccc3cnc(NC(=O)CN4C5CCC4CC5)cc3c2)cn1 [Compound 292] ?
[A] 8.11

[Q] And O=C(Nc1cc2cc(-c3cnc4n3CCNC4)ccc2cn1)C1CCN(CC2(C(F)(F)F)CC2)CC1 [Compound 990] ?
[A] 7.67

[Q] And Cn1cncc1-c1ccc2cnc(NC(=O)C3CNC3)cc2c1 [Compound 535] ?
[A] 8.35

----------
system: Wnt pathway (Sp5-Luc reporter, TCF/LEF binding sites) in SW480 colon carcinoma cells; experiment: Screening assay for Wnt activity: Sp5-Luc reporter gene assay; format: cell-based, human; conditions: Homo sapiens; Sp5-Luc reporter, SW480 cells, 36 to 48 hours;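 further: firefly luciferase luminescence read in stably transduced SW480 cells carrying the Sp5 promoter reporter with eight TCF/LEF sites, compounds given in 0.1% DMSO final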
Consider the following molecules; for each one, report its EC50.
Please give a number only; it is taken to be in µM.

[Q] Given `COCCN1CCC(C(=O)Nc2cc3cc(-c4cnn(C)c4)ccc3cn2)CC1` , state its recorded EC50.
[A] 0.765

[Q] And `Cn1cc(-c2ccc3cnc(NC(=O)C4CCN(CC(C)(C)F)CC4)cc3c2)cn1` ?
[A] 1.2

[Q] And `Cn1cc(-c2ccc3cnc(NC(=O)CN4CCC(C(F)F)CC4)cc3c2)cn1` ?
[A] 2.57

[Q] And `Cc1nnc(-c2ccc3cnc(NC(=O)CN4CCN(C)CC4)cc3c2)s1` ?
[A] 1.88

[Q] And `Cn1ncc(-c2ccc3cnc(NC(=O)C4CC5(C4)CN(C(=O)OC(C)(C)C)C5)cc3c2)c1CN1CCCCC1` ?
[A] 3.21

[Q] And `CCN(CC)CC(=O)Nc1cc2cc(-c3cnn(C)c3CN3CCCCC3)ccc2cn1` ?
[A] 2.84

[Q] And `Cc1ncc(-c2ccc3cnc(NC(=O)[C@H]4CC[C@H](N5CCOCC5)CC4)cc3c2)o1` ?
[A] 4.12

[Q] And `Cn1cc(-c2ccc3cnc(NC(=O)C4CC5(CCN(CCF)CC5)C4)cc3c2)cn1` ?
[A] 0.467

[Q] And `O=C(Nc1cc2cc(-c3cncs3)ccc2cn1)C1CCN(C(=O)CN2CCCC2)CC1` ?
[A] 0.444

[Q] And `CN1CCC(C(=O)Nc2cc3cc(-c4cnn(C)c4)c(Cl)cc3cn2)CC1` ?
[A] 0.875

[Q] And `[2H]c1nc(NC(=O)CN2CCCC2)cc2cc(-c3cnn(C)c3)ccc12` ?
[A] 1.78

[Q] And `O=C(CN1C2CCC1CC2)Nc1cc2cc(-c3cnn4c3CN(CCF)CC4)ccc2cn1` ?
[A] 4.32

[Q] And `C[C@H]1CCCN1CC(=O)Nc1cc2cc(-c3cnn(C)c3)ccc2cn1` ?
[A] 5.23

[Q] And `Cn1ncc(-c2ccc3cnc(NC(=O)C4CCC(F)(F)CC4)cc3c2)c1CN1CCCC1` ?
[A] 1.53

[Q] And `Cn1cncc1-c1ccc2cnc(NC(=O)C3CCN(S(C)(=O)=O)CC3)cc2c1` ?
[A] 1.46

[Q] And `Cn1cc(-c2ccc3cnc(NC(=O)CCN4CCOCC4)cc3c2)cn1` ?
[A] 2.04
